Biological target: T1, BCMA-Fc fusion protein (Acrobiosystems, catalog number BC7-H5254) (human, UniProt Q02223 1-54, biotin cross-linked, 3 to 5 biotin molecules per molecule, where the biotinylated antigen is used (ELISA of Table 3); sites not stated)
T1 construct: Bought protein; also called BCMA antigen; BCMA-Fc antigen; not shown: human Fc of the bought fusion protein
T1 sequence (looked up): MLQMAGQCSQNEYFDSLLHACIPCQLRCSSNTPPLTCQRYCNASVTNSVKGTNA
Assay: ELISA EC50 relative to J6
REPORTED_METRIC: Fold of J6 (fold)
Answers are plain numbers, in fold.

B10.5 scFv-Fc (Fc fusion, also called mutant B10.5; not shown: Fc (scFv-Fc)) scFv: QVQLQQSGAEVKKPGSSVKVSCKASGGTFSKSAIHWVRQAPGQGLEWMGGVIPIFGTANYAQKFQGRVTITADESTSTAYMELSSLRSEDTAVYYCARGWYLDLWGRGTLVTVSSASTGGSSRSSSSGGGGSGGGGLPVLTQPPSASGTPGQRVTISCSGSSSNIGGYSVNWYQQFPGTAPKLLIYRNNQRPSGVPDRFSGSKSGASASLAISGLQSEDVADYYCAAWDDSLIGYVFGTGTQLTVL | 1.35
B10.4 scFv-Fc (Fc fusion, also called mutant B10.4; not shown: Fc (scFv-Fc)) scFv: QVQLQQSGAEVKKPGSSVKVSCKASGGTFSKSAIMWVRQAPGQGLEWMGGVIPIFGTANYAQKFQGRVTITADESTSTAYMELSSLRSEDTAVYYCARGWYLDLWGRGTLVTVSSASTGGSSRSSSSGGGGSGGGGLPVLTQPPSASGTPGQRVTISCSGSSNNIGGYSVNWYQQFPGTAPKLLIYRNNQRPSGVPDRFSGSKSGASFSLAISGLQFEDEADYYCARWDDSVIGWVLGTGTQLTVL | 1.55

Consider now this further binder.
[ask] Reported Fold of J6, binder B10.3 scFv-Fc (Fc fusion, also called mutant B10.3; not shown: Fc (scFv-Fc)) scFv: QVQLQQSGAEVKKPGSSVKVSCKASGGTFSKSAIQWVRQAPGQGLEWMGGVIPIFGTANYAQKFQGRVTITADESTSTAYMELSSLRSEDTAVYYCARGWYLDLWGRGTLVTVSSASTGGSSRSSSSGGGGSGGGGLPVLTQPPSASGTPGQRVTISCSGSSNNIGGYSVNWYQQFPGTAPKLLIYRNNQRPSGVPDRFSGSKSGASASLAISGLQSEDEADYYCAAWDDSVIGWLFGTGTQLTVL : ____
[reply] 1.29
